Test system: Cyno FGFR2b
testName: ELISA binding to recombinant cyno FGFR2b (Example 11)
reportedMetric: Emax (A450)

Prompt: Any idea what Emax (A450) was measured for BGAm1371: parental murine anti-FGFR2b antibody (parental mouse clone); VH SEQ ID NO: 32, VL SEQ ID NO: 34 (antibody, V domains shown, Synthetic: VH AA; Synthetic: VL AA) VH: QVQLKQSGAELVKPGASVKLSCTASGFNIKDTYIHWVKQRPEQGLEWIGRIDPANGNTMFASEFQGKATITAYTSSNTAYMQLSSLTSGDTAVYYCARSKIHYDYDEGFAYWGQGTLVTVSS VL: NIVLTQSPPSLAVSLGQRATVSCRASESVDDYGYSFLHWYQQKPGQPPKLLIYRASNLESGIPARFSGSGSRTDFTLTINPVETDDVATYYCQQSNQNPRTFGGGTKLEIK ?
Response: 3.018 A450
